Test: Antioxidant activity assessed as ABTS free radical scavenging activity after 12 hrs
Type: functional
PROPERTY_LABEL: IC50 (µM)

Please review the following examples before continuing.
COMPOUND	PROPERTY_LABEL	DATA_VALUE
CCOc1cc(C=C2C(=O)OC(C)(C)OC2=O)ccc1O	IC50	30.7
O=C1O[C@H]([C@@H](O)CO)C(O)=C1O	IC50	25.5

[a] Cc1c(C)c2c(c(C)c1O)CCC(C)(C(=O)O)O2 (stereo not given)
[b] COc1cc(C=C2C(=O)OC(C)(C)OC2=O)ccc1O
[c] COc1ccc(C=C2C(=O)OC(C)(C)OC2=O)cc1O
Ask: Ascending sort, IC50. // respond by listing labels in the order requested
Result: a, b, c
(a: 16.2 µM, b: 30.5 µM, c: 72.2 µM)

---

System: Radical scavenging activity
Assay: Antioxidant activity assessed as DPPH free radical scavenging activity after 1 hr
Type: functional
PROPERTY_LABEL: IC50 (µM)

MOLECULE	UNITS_SYMBOL	IC50
COc1ccc(C=C2C(=O)OC(C)(C)OC2=O)cc1O	µM	80
O=C1O[C@H]([C@@H](O)CO)C(O)=C1O	µM	22.4

[I] CCOc1cc(C=C2C(=O)OC(C)(C)OC2=O)ccc1O
[II] COc1cc(C=C2C(=O)OC(C)(C)OC2=O)ccc1O
Ask: Among I and II , whose measured IC50 is the smaller figure? API: response body contains the label of the selected item.
Result: II
(II: 24 µM, I: 39.1 µM)

// data source = ChEMBL document CHEMBL1212850
